This section presents molecules with their documented Nonionic 1 h, mL separation values.
condition: 1 h
quantity.kind: Nonionic 1 h, mL separation (mL)

molecule	experimental.value
CN(C)CCCNC(=O)CCCCCCC/C=C/CCCCCCCC(=O)NCCC[N+](C)(C)CC(=O)[O-] [C18-36, C18 DiDMAPA MonoBetaine]	0
CC/C=C/CCCCCCCC(=O)NCCC[N+](C)(C)CC(O)CS(=O)(=O)[O-] (stereo not shown) [C12-24, C12 DMAPA Sulfobetaine]	0.25
C=CCCCCCCCC(=O)NCCC[N+](C)(C)CC(O)CS(=O)(=O)[O-] (stereo not shown) [C10-24, C10 DMAPA Sulfobetaine]	0.5
C[N+](C)(C)CCCNC(=O)CCCCCCC/C=C/CCCCCCCC(=O)NCCC[N+](C)(C)[O-] [Mix-35, C18 DiDMAPA Quat AO]	5
